tested on: Triticum aestivum (TRZAW, winter wheat); experiment: Test 1B glasshouse assay for herbicidal activity, pre-emergence; format: in vivo; conditions: 480 h, 125 g/ha, 20 DAA, read-out: percentage phytotoxicity TRZAW
Result type: plant injury at 125 g/ha
Report the figure along with its unit, number first.

Some compounds with recorded plant injury at 125 g/ha:
What does the record list as plant injury at 125 g/ha for CC#Cc1cc(C)c(C2=C(OC(C)=O)CC(c3ccccn3)CC2=O)c(C)c1 (stereo not shown) [Compound A-15] ?
0%

What does the record list as plant injury at 125 g/ha for CC#Cc1cc(C)c(C2C(=O)CC(CC3CCOCC3)CC2=O)c(C)c1 (stereo not shown) [Compound A-9] ?
20%

What does the record list as plant injury at 125 g/ha for Cc1cc(C#CCl)cc(C)c1C1C(=O)C2CCC(C2)C1=O (stereo not shown) [Compound A-6] ?
10%

Attention now turns to another entry.
What does the record list as plant injury at 125 g/ha for CC#Cc1cc(C)c(C2C(=O)C3CCC(C3)C2=O)c(OC)c1 (stereo not shown) [Compound A-10] ?
20%

====

test system: Alopecurus myosuroides (ALOMY); test: Test 1A glasshouse assay for herbicidal activity, post-emergence; type: in vivo; conditions: 312 h, 250 g/ha, evaluated after 13 days, read-out: percentage phytotoxicity ALOMY
Result type: pest or weed control at 250 g/ha (%)
Just the number in %, nothing appended.

Some molecules with recorded pest or weed control at 250 g/ha:
What does the record list as pest or weed control at 250 g/ha for CC#Cc1cc(Cl)c(C2=C(OC(=O)C(C)(C)C)C3CCC(C3)C2=O)c(OC)c1 (centres unmarked) [Compound P-7] ?
100

What does the record list as pest or weed control at 250 g/ha for CC#Cc1cc(Cl)c(C2C(=O)C3CCC(C3)C2=O)c(CC)c1 (centres unmarked) [Compound A-4] ?
90

What does the record list as pest or weed control at 250 g/ha for CC#Cc1ccc(C2C(=O)C3CCC(C3)C2=O)c(C)c1 (single isomer, unassigned) [Compound A-2] ?
90

New cases:
What does the record list as pest or weed control at 250 g/ha for Cc1cc(C#CCl)ccc1C1C(=O)C(C)(C)OC(C)(C)C1=O [Compound A-7] ?
80

What does the record list as pest or weed control at 250 g/ha for CC#Cc1cc(Cl)c(C2C(=O)C3CCC(C3)C2=O)c(OCC)c1 (centres unmarked) [Compound A-16] ?
100

What does the record list as pest or weed control at 250 g/ha for C#Cc1cc(C)c(C2C(=O)CC(c3ccccn3)CC2=O)c(C)c1 (centres unmarked) [Compound X-4, reference compound] ?
80

What does the record list as pest or weed control at 250 g/ha for CC#Cc1cc(C)c(C2C(=O)CC(CCSC)CC2=O)c(C)c1 (centres unmarked) [Compound A-21] ?
90

What does the record list as pest or weed control at 250 g/ha for CC#Cc1cc(C)c(C2C(=O)CC(c3ccccn3)CC2=O)c(C)c1 (centres unmarked) [Compound A-13] ?
100

What does the record list as pest or weed control at 250 g/ha for C#Cc1cc(Cl)c(C2C(=O)C3CCC(C3)C2=O)c(OC)c1 (centres unmarked) [Compound B-3] ?
80

What does the record list as pest or weed control at 250 g/ha for CC#Cc1ccc(C2C(=O)C3CCC(C3)C2=O)c(Cl)c1 (centres unmarked) [Compound A-11] ?
100

What does the record list as pest or weed control at 250 g/ha for CC#Cc1cc(Cl)c(C2=C(OC(=O)SCC)C3CCC(C3)C2=O)c(OCC(F)(F)F)c1 (centres unmarked) [Compound P-6] ?
50

====

test system: Triticum aestivum (TRZAW, winter wheat); test: Test 1B glasshouse assay for herbicidal activity, post-emergence; type: in vivo; conditions: 360 h, 30 g/ha application rate
Result type: plant injury at 30 g/ha (%)
Just the number in %, nothing appended.

Some compounds with recorded plant injury at 30 g/ha:
What does the record list as plant injury at 30 g/ha for CC#Cc1cc(Cl)c(C2C(=O)C3CCC(C3)C2=O)c(OC)c1 (stereo not drawn) ?
40

What does the record list as plant injury at 30 g/ha for CC#Cc1cc(C)c(C2C(=O)C3CCC(C3)C2=O)c(OC)c1 (stereo not drawn) ?
60

What does the record list as plant injury at 30 g/ha for CC#Cc1cc(C)c(C2C(=O)C3CCC(C3)C2=O)c(C)c1 (stereo not drawn) ?
30

New cases:
What does the record list as plant injury at 30 g/ha for CC#Cc1cc(C)c(C2=C(OC(=O)OC)CC(c3ccccn3)CC2=O)c(C)c1 (stereo not drawn) ?
60

What does the record list as plant injury at 30 g/ha for CC#Cc1cc(C)c(C2=C(OC(C)=O)CC(c3ccccn3)CC2=O)c(C)c1 (stereo not drawn) ?
70

What does the record list as plant injury at 30 g/ha for CC#Cc1cc(C)c(C2C(=O)CC(CC3CCOCC3)CC2=O)c(C)c1 (stereo not drawn) ?
60

====

Items are presented alongside their recorded pest or weed control at 250 g/ha.
test system: Alopecurus myosuroides (ALOMY); assay: Test 1A glasshouse assay for herbicidal activity, pre-emergence; assay type: in vivo; details: 312 h, 250 g/ha, evaluated after 13 days, read-out: percentage phytotoxicity ALOMY
Just the number in %, nothing appended.

What does the record list as pest or weed control at 250 g/ha for CC#Cc1ccc(C2C(=O)C3CCC(C3)C2=O)c(C)c1 (single isomer, unassigned) ?
90

What does the record list as pest or weed control at 250 g/ha for CC#Cc1cc(Cl)c(C2C(=O)CCCC2=O)c(OC)c1 ?
90

What does the record list as pest or weed control at 250 g/ha for CC#Cc1cc(C)c(C2C(=O)C3CCC(C3)C2=O)c(CCC)c1 (stereo not shown) ?
100

What does the record list as pest or weed control at 250 g/ha for CC#Cc1cc(C)c(C2=C(OC(=O)OC)CC(c3ccccn3)CC2=O)c(C)c1 (stereo not shown) ?
100

New cases:
What does the record list as pest or weed control at 250 g/ha for CC#Cc1cc(Cl)c(C2C(=O)CC3(CCOCC3)CC2=O)c(OC)c1 ?
100

What does the record list as pest or weed control at 250 g/ha for CC#Cc1cc(C)c(C2=C(OC(C)=O)CC(c3ccccn3)CC2=O)c(C)c1 (stereo not shown) ?
100

What does the record list as pest or weed control at 250 g/ha for CC#Cc1cc(Cl)c(C2C(=O)C3CCC(C3)C2=O)c(OCC)c1 (stereo not shown) ?
100

What does the record list as pest or weed control at 250 g/ha for CCC#Cc1cc(Cl)c(C2C(=O)C3CCC(C3)C2=O)c(OC)c1 (stereo not shown) ?
100

What does the record list as pest or weed control at 250 g/ha for CC#Cc1cc(C)c(C2=C(OC(=O)C(C)(C)C)C3CCC(C3)C2=O)c(C)c1 (stereo not shown) ?
100

What does the record list as pest or weed control at 250 g/ha for CC#Cc1cc(Cl)c(C2=C(OC(=O)SCC)C3CCC(C3)C2=O)c(OCC(F)(F)F)c1 (stereo not shown) ?
10

====

Items are presented alongside their recorded pest or weed control at 30 g/ha.
test system: Amarantus retroflexus (AMARE); test: Biological Example 2 comparative herbicidal data, post-emergence glasshouse screen; format: in vivo; conditions: Amaranthus retroflexus, 30 g/ha application rate, read-out: Post-emergence herbicidal activities (percentage phytotoxicity) AMARE
Just the number in %, nothing appended.

Some compounds with recorded pest or weed control at 30 g/ha:
What does the record list as pest or weed control at 30 g/ha for C#Cc1cc(C)c(C2C(=O)CC(c3ccccn3)CC2=O)c(C)c1 (centres unmarked) [Compound X-4, reference compound] ?
0

What does the record list as pest or weed control at 30 g/ha for C#Cc1cc(Cl)c(C2C(=O)C3CCC(C3)C2=O)c(OC)c1 (centres unmarked) ?
0

What does the record list as pest or weed control at 30 g/ha for CC#Cc1cc(Cl)c(C2C(=O)CCCC2=O)c(OC)c1 ?
20

What does the record list as pest or weed control at 30 g/ha for CC#Cc1cc(C)c(C2C(=O)CC(c3ccccn3)CC2=O)c(C)c1 (centres unmarked) ?
30

What does the record list as pest or weed control at 30 g/ha for CC#Cc1cc(C)c(C2C(=O)CC(CCSC)CC2=O)c(C)c1 (centres unmarked) ?
80

What does the record list as pest or weed control at 30 g/ha for CSC(C)CC1CC(=O)C(c2c(C)cc(C)cc2C)C(=O)C1 (centres unmarked) [Compound X-8, reference compound] ?
0

What does the record list as pest or weed control at 30 g/ha for CC#Cc1cc(Cl)c(C2C(=O)C3CCC(C3)C2=O)c(OC)c1 (centres unmarked) ?
0

Attention now turns to another entry.
What does the record list as pest or weed control at 30 g/ha for CC#Cc1cc(C)c(C2C(=O)CC(CC(C)SC)CC2=O)c(C)c1 (centres unmarked) ?
0

Every entry's value here was drawn from patent US9615577B2.
